B1: ANKRD40 (parent)
chain: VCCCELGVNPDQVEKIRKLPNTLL

Variants of: B1
protocol-text: protein stability index of a GFP-peptide fusion (GPS, HEK-293T) (PSI 1-6); higher = more stable;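 further: lentivirally expressed fusions sorted by FACS into six bins by GFP to DsRed ratio, PSI derived from sequencing read proportions per bin multiplied by bin number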
condition-summary: c terminus: a fixed tail appended
assay-metric: protein stability index
Form: value (number only, do not type unit).

QUERY: Give a short answer stating reported protein stability index for VCCNELGVNPDQVEKIRKLPNTLL .
RESULT: 2.41

QUERY: Give a short answer stating reported protein stability index for VCCEELGVNPDQVEKIRKLPNTLL .
RESULT: 3

QUERY: Give a short answer stating reported protein stability index for VCCCEIGVNPDQVEKIRKLPNTLL .
RESULT: 1.8

QUERY: Give a short answer stating reported protein stability index for VCCCELGVNPHQVEKIRKLPNTLL .
RESULT: 1.26

QUERY: Give a short answer stating reported protein stability index for VCCCELGVNNDQVEKIRKLPNTLL .
RESULT: 2

QUERY: Give a short answer stating reported protein stability index for VCCCELGVNPDQVEKIRKLPRTLL .
RESULT: 1.34

QUERY: Give a short answer stating reported protein stability index for VCCCELGVNPDQVEKIQKLPNTLL .
RESULT: 1.62

QUERY: Give a short answer stating reported protein stability index for VCCCELGVNPDQVEKIRPLPNTLL .
RESULT: 1.59

QUERY: Give a short answer stating reported protein stability index for VCCCELGVNPDQVSKIRKLPNTLL .
RESULT: 1.45

QUERY: Give a short answer stating reported protein stability index for VCCCELGVNPDQVEKINKLPNTLL .
RESULT: 1.67

QUERY: Give a short answer stating reported protein stability index for VCCCELGVNPDQVEKIRKLPNTIL .
RESULT: 1.6

QUERY: Give a short answer stating reported protein stability index for VCECELGVNPDQVEKIRKLPNTLL .
RESULT: 2.77

QUERY: Give a short answer stating reported protein stability index for VCCCELGVNPDHVEKIRKLPNTLL .
RESULT: 1.42

QUERY: Give a short answer stating reported protein stability index for HCCCELGVNPDQVEKIRKLPNTLL .
RESULT: 2.21

QUERY: Give a short answer stating reported protein stability index for VCCCELGVNTDQVEKIRKLPNTLL .
RESULT: 1.98

QUERY: Give a short answer stating reported protein stability index for VCCCELGQNPDQVEKIRKLPNTLL .
RESULT: 1.85

QUERY: Give a short answer stating reported protein stability index for VCCCELGVNPDQVEKIGKLPNTLL .
RESULT: 1.45

QUERY: Give a short answer stating reported protein stability index for VCCCELGVTPDQVEKIRKLPNTLL .
RESULT: 1.68

QUERY: Give a short answer stating reported protein stability index for VCCSELGVNPDQVEKIRKLPNTLL .
RESULT: 2.84

QUERY: Give a short answer stating reported protein stability index for VCCVELGVNPDQVEKIRKLPNTLL .
RESULT: 2.74

QUERY: Give a short answer stating reported protein stability index for VCCCELWVNPDQVEKIRKLPNTLL .
RESULT: 1.51

QUERY: Give a short answer stating reported protein stability index for VCCCELGVNPDQVEKIRVLPNTLL .
RESULT: 2.15

QUERY: Give a short answer stating reported protein stability index for VCCCDLGVNPDQVEKIRKLPNTLL .
RESULT: 1.89

QUERY: Give a short answer stating reported protein stability index for VCCCELGVNPDQVEKIRKLPNTSL .
RESULT: 2.25

QUERY: Give a short answer stating reported protein stability index for VCCCELGVNPDQVEKIRKLPVTLL .
RESULT: 1.83

QUERY: Give a short answer stating reported protein stability index for VCCLELGVNPDQVEKIRKLPNTLL .
RESULT: 1.73

QUERY: Give a short answer stating reported protein stability index for VCCCELGVHPDQVEKIRKLPNTLL .
RESULT: 1.83

QUERY: Give a short answer stating reported protein stability index for VCCCELGVNPDQVEKIRKLPETLL .
RESULT: 2.02

QUERY: Give a short answer stating reported protein stability index for VCCCELGVNPDQVEKRRKLPNTLL .
RESULT: 2.12

QUERY: Give a short answer stating reported protein stability index for VCCCELGVNPDQVLKIRKLPNTLL .
RESULT: 2.13

QUERY: Give a short answer stating reported protein stability index for VCCCELGVNPDQVEKIRKLLNTLL .
RESULT: 2.02

QUERY: Give a short answer stating reported protein stability index for VCCCELGVNPDQVEKIRKLPNTHL .
RESULT: 2.67

QUERY: Give a short answer stating reported protein stability index for VCCCELGVNPTQVEKIRKLPNTLL .
RESULT: 1.69

QUERY: Give a short answer stating reported protein stability index for VCCCELGVNPEQVEKIRKLPNTLL .
RESULT: 2.18

QUERY: Give a short answer stating reported protein stability index for VCCCELGVNPDQVETIRKLPNTLL .
RESULT: 1.66

QUERY: Give a short answer stating reported protein stability index for VCCCELGVNPDQVEKIRKNPNTLL .
RESULT: 2.23

QUERY: Give a short answer stating reported protein stability index for VCCCELGVNPDQVWKIRKLPNTLL .
RESULT: 2.21

QUERY: Give a short answer stating reported protein stability index for VCCCELGVNPDQVGKIRKLPNTLL .
RESULT: 1.89

QUERY: Give a short answer stating reported protein stability index for VVCCELGVNPDQVEKIRKLPNTLL .
RESULT: 3.24

QUERY: Give a short answer stating reported protein stability index for VCCCELGVNPDQVEKIRKLPNVLL .
RESULT: 1.33

QUERY: Give a short answer stating reported protein stability index for VCCCELGVNMDQVEKIRKLPNTLL .
RESULT: 1.55

QUERY: Give a short answer stating reported protein stability index for VCCCELGVNPDQVEKIRFLPNTLL .
RESULT: 2.53

QUERY: Give a short answer stating reported protein stability index for VCCCELGVNPDQVEKCRKLPNTLL .
RESULT: 2.22

QUERY: Give a short answer stating reported protein stability index for VCCCELGVNPDQVELIRKLPNTLL .
RESULT: 2.34

QUERY: Give a short answer stating reported protein stability index for VCCCELGVNPDQVEKIRKLPNTLS .
RESULT: 2.49

QUERY: Give a short answer stating reported protein stability index for VCCCELGVNPDQVEKIRKLPNTCL .
RESULT: 1.71

QUERY: Give a short answer stating reported protein stability index for VCCCELGVNPDQVEKIRKLPNTGL .
RESULT: 2.51

QUERY: Give a short answer stating reported protein stability index for VCCCELGVNPDQVEVIRKLPNTLL .
RESULT: 2.12

QUERY: Give a short answer stating reported protein stability index for VCSCELGVNPDQVEKIRKLPNTLL .
RESULT: 2.09

QUERY: Give a short answer stating reported protein stability index for VCCCELGVNPDQVEGIRKLPNTLL .
RESULT: 1.41

QUERY: Give a short answer stating reported protein stability index for VCCCELGVNPDQVEKMRKLPNTLL .
RESULT: 1.67

QUERY: Give a short answer stating reported protein stability index for VCCCELGVNPDQVEKIRKLPITLL .
RESULT: 2.15

QUERY: Give a short answer stating reported protein stability index for VCCCELGVNPDQHEKIRKLPNTLL .
RESULT: 1.77

QUERY: Give a short answer stating reported protein stability index for VCCCELGVNPDQVEKIRKLPNTLF .
RESULT: 2.04

QUERY: Give a short answer stating reported protein stability index for VCCCELGVNPDQVEKIEKLPNTLL .
RESULT: 2.31

QUERY: Give a short answer stating reported protein stability index for VCCCELGVNPDQVEKIRKLPGTLL .
RESULT: 1.45

QUERY: Give a short answer stating reported protein stability index for VCCCELGVNPDQVEKIRKSPNTLL .
RESULT: 2.17

QUERY: Give a short answer stating reported protein stability index for VCCCELGVNPDQVEPIRKLPNTLL .
RESULT: 2.07

QUERY: Give a short answer stating reported protein stability index for VCCCELGVNPDQVEKIRKLPHTLL .
RESULT: 1.83

QUERY: Give a short answer stating reported protein stability index for VCCCELGVNPDQVEKIRKLPNGLL .
RESULT: 1.51

QUERY: Give a short answer stating reported protein stability index for VCCCELGVNPDQVEKIRTLPNTLL .
RESULT: 1.89

QUERY: Give a short answer stating reported protein stability index for VMCCELGVNPDQVEKIRKLPNTLL .
RESULT: 2.4

QUERY: Give a short answer stating reported protein stability index for VCCCFLGVNPDQVEKIRKLPNTLL .
RESULT: 3.32

QUERY: Give a short answer stating reported protein stability index for PCCCELGVNPDQVEKIRKLPNTLL .
RESULT: 1.41

QUERY: Give a short answer stating reported protein stability index for VCCCELGVNPDQVEKIRKLGNTLL .
RESULT: 2.08

QUERY: Give a short answer stating reported protein stability index for VCCCELGVNPDQVEKLRKLPNTLL .
RESULT: 1.56

QUERY: Give a short answer stating reported protein stability index for VCCCELGVNPDQVEHIRKLPNTLL .
RESULT: 1.36

QUERY: Give a short answer stating reported protein stability index for VCCCELGVNPDQVEKIRCLPNTLL .
RESULT: 1.75

QUERY: Give a short answer stating reported protein stability index for VCKCELGVNPDQVEKIRKLPNTLL .
RESULT: 2.23

QUERY: Give a short answer stating reported protein stability index for VCCKELGVNPDQVEKIRKLPNTLL .
RESULT: 2.22

QUERY: Give a short answer stating reported protein stability index for VCCCELGVNPDQVEKITKLPNTLL .
RESULT: 1.47

QUERY: Give a short answer stating reported protein stability index for VCCCELGVNPDQVEKPRKLPNTLL .
RESULT: 2.89

QUERY: Give a short answer stating reported protein stability index for VCPCELGVNPDQVEKIRKLPNTLL .
RESULT: 1.97

QUERY: Give a short answer stating reported protein stability index for VCCCELGVNPDQVEKQRKLPNTLL .
RESULT: 2.32

QUERY: Give a short answer stating reported protein stability index for VCCCELGLNPDQVEKIRKLPNTLL .
RESULT: 1.34

QUERY: Give a short answer stating reported protein stability index for VCCCELGVNPDQVEKIRKLPQTLL .
RESULT: 1.74

QUERY: Give a short answer stating reported protein stability index for VCCCELRVNPDQVEKIRKLPNTLL .
RESULT: 1.78

QUERY: Give a short answer stating reported protein stability index for VCFCELGVNPDQVEKIRKLPNTLL .
RESULT: 1.24

QUERY: Give a short answer stating reported protein stability index for VCCCELGVNPDGVEKIRKLPNTLL .
RESULT: 2.07

QUERY: Give a short answer stating reported protein stability index for VCCCELGNNPDQVEKIRKLPNTLL .
RESULT: 1.99

QUERY: Give a short answer stating reported protein stability index for VCCCELGTNPDQVEKIRKLPNTLL .
RESULT: 1.62

QUERY: Give a short answer stating reported protein stability index for VCCCEMGVNPDQVEKIRKLPNTLL .
RESULT: 2.3

QUERY: Give a short answer stating reported protein stability index for CCCCELGVNPDQVEKIRKLPNTLL .
RESULT: 1.96

QUERY: Give a short answer stating reported protein stability index for VCCCELGVNPDQVQKIRKLPNTLL .
RESULT: 1.48

QUERY: Give a short answer stating reported protein stability index for VCCCELGVNPDQVEKIRKLNNTLL .
RESULT: 2.3

QUERY: Give a short answer stating reported protein stability index for VCCCELGVNPDQVEKIRKLCNTLL .
RESULT: 1.38

QUERY: Give a short answer stating reported protein stability index for VCCCELGVNPDPVEKIRKLPNTLL .
RESULT: 1.86

QUERY: Give a short answer stating reported protein stability index for VCCRELGVNPDQVEKIRKLPNTLL .
RESULT: 2.43

QUERY: Give a short answer stating reported protein stability index for VCCCELGVNPDQPEKIRKLPNTLL .
RESULT: 2.18

QUERY: Give a short answer stating reported protein stability index for NCCCELGVNPDQVEKIRKLPNTLL .
RESULT: 2.31

QUERY: Give a short answer stating reported protein stability index for VCCCELGVNPDQVEKIRWLPNTLL .
RESULT: 1.75
